tested on: PGE2; assay: PGE2 assay (anti-inflammatory test, SOP No. ATO-5307-00); assay type: cell-based; conditions: pure compounds, PGE2 assay; read-out: IC50
readout_kind: IC50

query: Give the measured IC50 of CC1CCC(C(C)C)C(OC(=O)Nc2ccccc2O)C1 (stereo not shown) .
result: 380 nM

Reference for the values: patent US10426752B2
